- Tested on: SK-MEL-2 melanoma
- assay_notes: NCI tumour cell line growth inhibition, 48 h
Below, each of the compounds is paired with its reported TGI value.

// solved cases for TGI follow
CC(C)c1ccccc1NC(=O)CCC(=O)NN : > 100 µM
Oc1ccc(-c2nc3ccc(F)cc3s2)cc1 : 34.9 µM
Nc1ncnc2c1ncn2C1OC(CSC(F)F)C(O)C1O (stereo unspecified) : > 100 µM
COC(=O)c1ccc2cc(O)c(O)cc2c1 : > 100 µM
CSc1ccc(NC(=O)C2CCCCC2C(=O)O)cc1 (stereo unspecified) : > 100 µM

Item: CN(C)CCNC(=O)c1cccc2c(NC(CCCN=C(N)N)C(=O)O)c3ccccc3[n+](C)c12 (stereo unspecified) | TGI: > 100 µM

Consider CC(=O)OCC1OC(n2c(C)c(C(C)=O)c(-c3ccc(Cl)cc3)c(C#N)c2=S)C(OC(C)=O)C(OC(C)=O)C1OC(C)=O (stereo unspecified) . Its measured TGI is > 100 µM

* * *

Measured GI50 accompanies every entry in the list below.
- System: HCT-15 colon
- assay_notes: NCI tumour cell line growth inhibition, 48 h

Worked examples follow.
O=C1Nc2ccccc2/C1=C/C(=N/c1nnc(-c2ccc(Cl)cc2)s1)c1ccccc1 : 1400 nM
COc1ccc2cnc(N)c(C#Cc3cc(C(=O)Nc4ccc(CN5CCN(C)CC5)c(C(F)(F)F)c4)cnc3C)c2c1 : 1690 nM
COC(=O)c1oc2c(C(C)=O)c(OCCN3CCOCC3)c(OC)cc2c1C : > 100000 nM

Moving on to the next compound.
Lab book: GI50 of CCOC(=O)c1cnc2c(C)cc(C)cc2c1NCCCN(C)C noted as 3690 nM

* * *

Catalogue of TGI readings, one per entry.
- Test system: ACHN renal
- assay_notes: NCI tumour cell line growth inhibition, 48 h
Give the number; µM is assumed, so skip it.

COc1ccc(OC)c(N(CCN2C(=O)c3ccccc3C2=O)C(=O)CCl)c1 : 4.85
COc1ccc(-c2cc(-c3ccccc3)nc(N)c2-c2ccc3ccccc3c2)cc1 : 4.77
Clc1ccc(OCc2nnc3n2N=C(c2ccccc2)CS3)cc1 : 37.5

Briefly, TGI measured for C=C[C@]1(C)CC(O)C2C(=C)C(=O)OC2[C@H]1C(=C)C=O (some centres undefined) : 6.33

Entry CCCCCCCCCCCCCCCC(=O)Nc1ccn(C2OC(CO)C(O)C2O)c(=O)n1 (centres undefined) ; TGI = 99.4

* * *

- Tested on: SN12C renal
- assay_notes: NCI tumour cell line growth inhibition, 48 h
endpoint_label: TGI

CCOC(=O)COc1ccc(OC)c2c1C(=O)CCC2 : > 100 µM

Per the records, this compound ( COc1ccc(N2C(=O)C3c4[nH]c5cccc(Cl)c5c4C4CCC(C(C)(C)C)CC4C3C2=O)cc1 (configuration not stated) ) has TGI equal to > 100 µM

* * *

Readings of TGI for the listed compounds
- Test system: PC-3 prostate
- assay_notes: NCI tumour cell line growth inhibition, 48 h

Consider the reported TGI for these compounds:
Cc1ccc(C2CC(c3cccc(Nc4ccncc4)c3)=NN2c2cc(Cl)cc(Cl)c2)cc1 (stereo not drawn) : 3.2 µM
Fc1cc(-c2csc3n[nH]c(=S)n23)c(Cl)cc1Cl : > 100 µM
C=C[C@]1(C)CC(O)C2C(=C)C(=O)OC2[C@H]1C(=C)C=O (stereo partly drawn) : 10 µM
CCOC(=O)C(=Cc1ccc(-c2ccccc2)cc1)C(=O)OCC : 6.09 µM
O=C(NCCCCN(CCCNC(=O)C(F)(F)F)Cc1ccccc1)C(F)(F)F : > 100 µM

--- query ---
Recorded TGI (compound O=S(=O)(O)c1ccc(-c2c3nc(c(-c4ccc(S(=O)(=O)O)cc4)c4ccc([nH]4)c(-c4ccc(S(=O)(=O)O)cc4)c4nc(c(-c5ccc(S(=O)(=O)O)cc5)c5ccc2[nH]5)C=C4)C=C3)cc1 ): > 100 µM
